# conditionParameters: 100.0 µM
Overview of recorded relative solubility at 100 uM for various compounds
Reply: number alone, nothing else.

Some entries whose results are on file:
>>> numericreadout("COc1cccc2c1OCC(NC(=O)c1cc(=O)[nH]c3ccc(F)cc13)C2 (stereo unspecified)")
0.81
>>> numericreadout("O=C(c1cc(=O)[nH]c2ccccc12)N1CCN(c2ccc(F)cc2)CC1")
0.99
>>> numericreadout("Cc1ccncc1NC(=O)Cc1cccc(I)c1")
1
>>> numericreadout("C=CC(=O)N(c1ccc(C(C)(C)C)cc1)C(C(=O)NC)c1cccnc1 (stereo unspecified)")
0.99

Hello, please tell me recorded relative solubility at 100 uM for this one: O=S(=O)(Cc1ccccc1)Nc1cnccc1N1CCCC1
0.98

Hello, please tell me recorded relative solubility at 100 uM for this one: C=CC(=O)N(c1ccc2ncsc2c1)C(C(=O)Nc1cccc(CC)c1)c1cccnc1 (stereo unspecified)
0.63

Hello, please tell me recorded relative solubility at 100 uM for this one: Cc1noc(C)c1COc1ccccc1C(=O)NC(C)c1nnc2ncccn12 (stereo unspecified)
0.94

Hello, please tell me recorded relative solubility at 100 uM for this one: Cc1cnc(CC(=O)Nc2cccnc2)o1
1

Hello, please tell me recorded relative solubility at 100 uM for this one: C=CC(=O)N(c1cc(C(C)(C)C)on1)C(C(=O)Nc1cccc(CC)c1)c1cccnc1 (stereo unspecified)
0.76

Hello, please tell me recorded relative solubility at 100 uM for this one: CC(C)c1ncncc1NC(=O)C(C)c1cccc(Cl)c1 (stereo unspecified)
1

Hello, please tell me recorded relative solubility at 100 uM for this one: N#CC(C(=O)Nc1ccccc1)C(=O)c1cccc(Cl)c1 (stereo unspecified)
0.98

---

Overview of recorded relative solubility at 20 uM for various compounds
# conditionParameters: 20.0 µM
Reply: number alone, nothing else.

Some entries whose results are on file:
>>> numericreadout("CCS(=O)(=O)N1CCC(C(=O)Nc2cc(Cl)ccc2O)CC1")
1
>>> numericreadout("Cc1ccncc1NC(=O)Cc1cccc(CO)c1")
1
>>> numericreadout("CC(=O)N1CCN(CC(=O)Nc2cccc(S(N)(=O)=O)c2)CC1")
1
>>> numericreadout("CS(=O)(=O)N(CCc1ccccc1)CC1CCN(C(=O)CCl)CC1")
0.96
>>> numericreadout("CC(=O)Nc1ccc(C#N)cc1CN1CCN(C(=O)CCl)CC1")
1

Hello, please tell me recorded relative solubility at 20 uM for this one: COc1ccccc1OCCNC(=O)c1cc(=O)[nH]c2ccccc12
0.99

Hello, please tell me recorded relative solubility at 20 uM for this one: Cc1cccc(C2CN(C(=O)CCl)Cc3ccccc32)c1 (stereo unspecified)
1

Hello, please tell me recorded relative solubility at 20 uM for this one: CCC(C)(C)CCN(Cc1ccsc1)C(=O)Cn1nnc2ccccc21
0.99

---

# system: SARS-CoV-2 Main Protease (SARS-CoV-2)
Mark each entry YES if its IC50 sits below 20 µM, and NO for all others.

>>> answerlabel("C=CC(=O)N(c1ccc(C(C)(C)C)cc1)C(C(=O)NCCc1cccc(F)c1)c1cncc(Cl)c1 (stereo not drawn)")
"YES"
>>> answerlabel("CN(C)c1ccc(N(Cc2ccn[nH]2)C(=O)Cn2nnc3ccccc32)cc1")
"NO"
>>> answerlabel("O=C1NC(c2cccnc2)C(=O)N1c1cccc(Cl)c1 (stereo not drawn)")
"NO"
>>> answerlabel("N#Cc1ncn(CC(=O)Nc2ccc(Br)cc2Cl)n1")
"YES"
>>> answerlabel("Cc1c(C(=O)CCl)c2ccccn2c1C(=O)c1ccc(F)cc1")
"YES"

Confirm or reject: IC50 of COc1cccc(C(=O)Nc2n[nH]c(SCc3ccc(Cl)cc3)n2)c1 lies strictly below 20 µM
YES

Confirm or reject: IC50 of O=C(CCl)N1CCN(C(c2ccccc2)C2CCOCC2)CC1 (stereo not drawn) lies strictly below 20 µM
YES

Confirm or reject: IC50 of COc1ccc(N2CCN(C(=O)c3cc(=O)[nH]c4ccccc34)CC2)cc1 lies strictly below 20 µM
NO

Confirm or reject: IC50 of O=C(COc1cccc(Cl)c1)Nc1cncc2ccccc12 lies strictly below 20 µM
YES

---

Overview of recorded relative solubility at 100 uM for various compounds
# conditionParameters: 100.0 µM
Reply: number alone, nothing else.

Some entries whose results are on file:
>>> numericreadout("Cc1ccncc1NC(=O)Cc1cc(Cl)c2c(c1)OCCO2")
1
>>> numericreadout("C=CC(=O)N(c1ccc(C2(C)CC2)cc1)C(C(=O)Nc1ccc(OC)cc1C)c1cccnc1 (configuration not stated)")
0.52
>>> numericreadout("CC1(C)CCCN1S(=O)(=O)c1ccc2c(c1)C(=O)C(=O)N2")
0.89

Hello, please tell me recorded relative solubility at 100 uM for this one: O=C(Nc1cnccc1Cl)c1cccc(Cl)c1
1

Hello, please tell me recorded relative solubility at 100 uM for this one: C=C1CC1C(=O)NC(C)c1ccc(S(=O)(=O)NC)cc1 (configuration not stated)
1

Hello, please tell me recorded relative solubility at 100 uM for this one: Cc1cnn(C)c1NC(=O)Cc1cccc(Cl)c1
0.99

Hello, please tell me recorded relative solubility at 100 uM for this one: C=CC(=O)N(c1ccc(C(C)(C)CC)cc1)C(C(=O)Nc1ccccc1Br)c1cccnc1 (configuration not stated)
1

Hello, please tell me recorded relative solubility at 100 uM for this one: O=C(Cc1cccc(Cl)c1)Nn1cnc2ccccc21
1

Hello, please tell me recorded relative solubility at 100 uM for this one: O=C(CCl)N1CCN(Cc2ccsc2)CC1
0.99

Hello, please tell me recorded relative solubility at 100 uM for this one: C=CC(=O)N(c1ccc(C(C)(C)C)cc1)C(C(=O)NCCC(=O)OCC)c1cccnc1 (configuration not stated)
0.97

Hello, please tell me recorded relative solubility at 100 uM for this one: Cc1noc([C@@H](C)S(=O)(=O)Cc2cccc(C(F)(F)F)c2)n1 (stereo in doubt)
1

Hello, please tell me recorded relative solubility at 100 uM for this one: NS(=O)(=O)c1ccc(C(=O)N2Cc3ccccc3C(c3ccccc3)C2)cc1 (configuration not stated)
0.96

Hello, please tell me recorded relative solubility at 100 uM for this one: O=C1C(=O)N(Cc2ccc(Br)cc2)c2c(Br)cccc21
0.97

Hello, please tell me recorded relative solubility at 100 uM for this one: Cc1ccccc1CNc1ccccc1NC(=O)C(O)c1cccnc1 (configuration not stated)
0.94

---

# conditionParameters: 20.0 µM
Overview of recorded relative solubility at 20 uM for various compounds
Reply: number alone, nothing else.

Some entries whose results are on file:
>>> numericreadout("O=S(=O)(Cc1ccccc1)Nc1cnccc1N1CCCC1")
0.99
>>> numericreadout("Cc1ccncc1NC(=O)Cc1ccc(S(N)(=O)=O)cc1")
1

Hello, please tell me recorded relative solubility at 20 uM for this one: N#Cc1cccc(C2CN(C(=O)CCl)Cc3ccccc32)c1 (stereo unspecified)
1

Hello, please tell me recorded relative solubility at 20 uM for this one: Cc1noc([C@@H](C)S(=O)(=O)Cc2cccc(C(F)(F)F)c2)n1 (stereo in doubt)
1.01

Hello, please tell me recorded relative solubility at 20 uM for this one: C=CC(=O)N(c1cc(C(C)(C)C)on1)C(C(=O)NCCc1cccc(F)c1)c1cncc(C)c1 (stereo unspecified)
1

Hello, please tell me recorded relative solubility at 20 uM for this one: Cc1ccncc1NC(=O)C(C)CC1CC1 (stereo unspecified)
1

---

# system: SARS-CoV-2 Main Protease (SARS-CoV-2) (UniProt P0DTD1)
Mark each entry yes (1) if its IC50 sits below 2 µM, and no (0) for all others.

>>> answerlabel("O=C(CCl)N1CCN(Cc2cc(Cl)cc(Cl)c2)CC1")
"yes (1)"

Confirm or reject: IC50 of Cc1ccncc1NC(=O)Cc1cc(Cl)cc(NS(N)(=O)=O)c1 lies strictly below 2 µM
no (0)

---

# conditionParameters: 20.0 µM
Overview of recorded relative solubility at 20 uM for various compounds
Reply: number alone, nothing else.

Some entries whose results are on file:
>>> numericreadout("C=CC(=O)N(c1ccc(C(C)(C)C)cc1)C(C(=O)Nc1ccc(OC)cc1C)c1cccnc1 (stereo unspecified)")
0.97
>>> numericreadout("C#Cc1cccc(N(C(=O)C=C)C(C(=O)NC(C)(C)C)c2cccnc2)c1 (stereo unspecified)")
1

Hello, please tell me recorded relative solubility at 20 uM for this one: Cc1cccc(CC(=O)Nc2cccnc2C#N)c1
1

Hello, please tell me recorded relative solubility at 20 uM for this one: Cc1ccncc1NC(=O)Cc1ccc2[nH]ccc2c1
1

Hello, please tell me recorded relative solubility at 20 uM for this one: CC(Cl)C(=O)N1CCC(C(=O)N2CCCCC2)CC1 (stereo unspecified)
0.99

Hello, please tell me recorded relative solubility at 20 uM for this one: CNS(=O)(=O)c1ccc(C(C)NC(=O)NC(C)(C)C)cc1 (stereo unspecified)
1

---

Overview of recorded inhibition for various molecules
# system: SARS-CoV-2 Main Protease (SARS-CoV-2) (UniProt P0DTD1)
# conditionParameters: 20.0 µM
Express the reported value numerically, then name its unit.

Some entries whose results are on file:
>>> result("CC(=O)N1CCN(Cc2cccc(C#N)c2)CC1")
"0%"
>>> result("Cc1cc(C)c(C)c(S(=O)(=O)N2CCN(C(=O)c3cc(=O)[nH]c4ccccc34)CC2)c1C")
"81.7%"
>>> result("O=C(Cc1cccnc1Br)Nc1cccc(OCCn2cncn2)c1")
"0%"
>>> result("CC(c1cccc(NC(=O)Cc2cnccc2Cl)c1)N1CCOCC1 (stereo unspecified)")
"0%"
>>> result("COc1cc(NC(=O)C(=O)Nc2cc(OC)c(OC)c(OC)c2)cc(OC)c1OC")
"0.456%"

Alright, here's another molecule for you.
// output inhibition; input Cc1ccc(NC(=O)C(C#N)C(=O)CC(C)C)cc1 (stereo unspecified) ; system SARS-CoV-2 Main Protease (SARS-CoV-2) (UniProt P0DTD1)
3.11%

Hey, just so you know, these numbers are from the COVID Moonshot data (paper PMC11187573).
